Assignment: determine reported HEK-Blue activity, No BP, DF-1,000,000 for the given binders.
# Test System: T1, IL-18 receptors on HEK-Blue IL-18 reporter cells (UniProt Q13478 19-541; O95256 20-599, limits assumed); note: unit not given here
# T1 sequence (looked up) 1: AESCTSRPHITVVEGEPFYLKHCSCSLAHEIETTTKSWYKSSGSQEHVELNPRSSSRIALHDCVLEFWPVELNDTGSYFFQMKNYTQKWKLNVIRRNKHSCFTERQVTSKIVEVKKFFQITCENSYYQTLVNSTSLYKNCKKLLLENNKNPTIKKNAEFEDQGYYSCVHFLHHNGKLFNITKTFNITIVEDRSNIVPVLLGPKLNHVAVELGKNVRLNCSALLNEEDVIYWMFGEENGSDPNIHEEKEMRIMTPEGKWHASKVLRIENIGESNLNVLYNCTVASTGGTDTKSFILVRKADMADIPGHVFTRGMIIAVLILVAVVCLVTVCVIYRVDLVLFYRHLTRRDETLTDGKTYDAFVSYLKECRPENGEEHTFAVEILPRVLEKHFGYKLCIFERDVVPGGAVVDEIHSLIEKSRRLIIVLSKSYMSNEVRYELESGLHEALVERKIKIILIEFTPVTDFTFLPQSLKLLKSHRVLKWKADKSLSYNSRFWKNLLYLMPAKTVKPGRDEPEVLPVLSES
# T1 sequence (looked up) 2: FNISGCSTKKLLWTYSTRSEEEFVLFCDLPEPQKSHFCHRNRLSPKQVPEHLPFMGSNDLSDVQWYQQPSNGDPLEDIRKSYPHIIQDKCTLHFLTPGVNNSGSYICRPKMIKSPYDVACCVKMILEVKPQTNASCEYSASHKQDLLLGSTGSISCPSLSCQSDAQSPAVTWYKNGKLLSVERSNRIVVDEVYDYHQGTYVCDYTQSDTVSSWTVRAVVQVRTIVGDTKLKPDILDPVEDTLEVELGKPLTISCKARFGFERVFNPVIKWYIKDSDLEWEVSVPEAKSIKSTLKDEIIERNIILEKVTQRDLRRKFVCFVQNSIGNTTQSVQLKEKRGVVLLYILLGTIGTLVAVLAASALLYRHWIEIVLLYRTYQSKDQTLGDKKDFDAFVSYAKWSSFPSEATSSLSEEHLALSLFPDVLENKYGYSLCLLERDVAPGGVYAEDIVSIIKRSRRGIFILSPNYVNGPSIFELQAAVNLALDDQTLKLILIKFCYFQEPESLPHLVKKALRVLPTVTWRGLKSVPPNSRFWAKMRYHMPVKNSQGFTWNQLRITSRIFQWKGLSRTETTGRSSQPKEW
# Experiment Summary: cell-based or functional assay
Give bare numbers.

IL-18 variant K53G, S55P, R104K, H109Y (ligand) YFGKLESKLSVIRNLNDQVLFIDQGNRPLFEDMTDSDMRDNAPRTIFIISMYGDPQPRGMAVTISVKSEKISTLSSENKIISFKEMNPPDNIKDTKSDIIFFQKSVPGYDNKMQFESSSYEGYFLASEKERDLFKLILKKEDELGDRSIMFTVQNED    0.1
IL-18 variant T34M, S36T, D37E, D40T, N41M, K53T, S55W (ligand) YFGKLESKLSVIRNLNDQVLFIDQGNRPLFEDMMDTEMRTMAPRTIFIISMYTDWQPRGMAVTISVKSEKISTLSSENKIISFKEMNPPDNIKDTKSDIIFFQRSVPGHDNKMQFESSSYEGYFLASEKERDLFKLILKKEDELGDRSIMFTVQNED    0.19
IL-18 variant T34E, N41D, K53N, S55R (ligand) YFGKLESKLSVIRNLNDQVLFIDQGNRPLFEDMEDSDMRDDAPRTIFIISMYNDRQPRGMAVTISVKSEKISTLSSENKIISFKEMNPPDNIKDTKSDIIFFQRSVPGHDNKMQFESSSYEGYFLASEKERDLFKLILKKEDELGDRSIMFTVQNED    0.09
IL-18 variant K53H, S55M, T63S (ligand) YFGKLESKLSVIRNLNDQVLFIDQGNRPLFEDMTDSDMRDNAPRTIFIISMYHDMQPRGMAVSISVKSEKISTLSSENKIISFKEMNPPDNIKDTKSDIIFFQRSVPGHDNKMQFESSSYEGYFLASEKERDLFKLILKKEDELGDRSIMFTVQNED    0.09
IL-18 variant K53Y, S55V (ligand) YFGKLESKLSVIRNLNDQVLFIDQGNRPLFEDMTDSDMRDNAPRTIFIISMYYDVQPRGMAVTISVKSEKISTLSSENKIISFKEMNPPDNIKDTKSDIIFFQRSVPGHDNKMQFESSSYEGYFLASEKERDLFKLILKKEDELGDRSIMFTVQNED    0.16

Please state, for each entry, its recorded HEK-Blue activity, No BP, DF-1,000,000.
1. IL-18 variant K53H, S55H (ligand) YFGKLESKLSVIRNLNDQVLFIDQGNRPLFEDMTDSDMRDNAPRTIFIISMYHDHQPRGMAVTISVKSEKISTLSSENKIISFKEMNPPDNIKDTKSDIIFFQRSVPGHDNKMQFESSSYEGYFLASEKERDLFKLILKKEDELGDRSIMFTVQNED
2. IL-18 variant K53Y, S55G, Q56H (ligand) YFGKLESKLSVIRNLNDQVLFIDQGNRPLFEDMTDSDMRDNAPRTIFIISMYYDGHPRGMAVTISVKSEKISTLSSENKIISFKEMNPPDNIKDTKSDIIFFQRSVPGHDNKMQFESSSYEGYFLASEKERDLFKLILKKEDELGDRSIMFTVQNED

0.08
0.11

Values were extracted from patent US20240182536A1.
